Test system: Plasmodium falciparum
Experiment Notes: Primary screen in NF54 nanoGlo assay, in single point, at 2uM, 72h
Type: functional, Erythrocyte
Condition Context: timepoint 72 hour
In all, about 150,000 compounds went through this assay and about 540 (0.36%) showed an effect of 50% or more. For the sample, strong results were picked, then their nearest neighbours and some compounds at random.
Value Kind: Z score

{"Record Smiles": "CCCc1c(C(=O)N2CCNc3ncccc32)cnn1C1CCCC1", "Target Desc": "Plasmodium falciparum", "Value Kind": "Z score", "Data Value": 1.14}
{"Record Smiles": "COc1ccc(Cn2c(C)c(C3=CCN(S(=O)(=O)c4cc(C)c(C)cc4C)CC3)c3ccccc32)cc1", "Target Desc": "Plasmodium falciparum", "Value Kind": "Z score", "Data Value": 0.05}
{"Record Smiles": "Oc1cc(C(F)(F)F)c2cc3c(cc2n1)OCO3", "Target Desc": "Plasmodium falciparum", "Value Kind": "Z score", "Data Value": -3.35}
{"Record Smiles": "O=S(=O)(c1cccc(F)c1F)N1CCN(Cc2nccn2C(F)F)CC1", "Target Desc": "Plasmodium falciparum", "Value Kind": "Z score", "Data Value": 0.57}
{"Record Smiles": "COc1nccnc1NCC1(N(C)C)CCCCC1", "Target Desc": "Plasmodium falciparum", "Value Kind": "Z score", "Data Value": -0.41}
{"Record Smiles": "CN1CCCN(c2nc(C(F)(F)F)nc3cc4c(cc23)OCO4)CC1", "Target Desc": "Plasmodium falciparum", "Value Kind": "Z score", "Data Value": 1.28}

----------
// reported Z score per item
System: Plasmodium falciparum
Experiment Notes: Primary screen in NF54 nanoGlo assay, in single point, at 2uM, 72h; a lower Z score goes with more inhibition
Format: functional, Erythrocyte
Condition Context: timepoint 72 hour
Out of some 150,000 compounds screened, about 540 (0.36%) showed an effect of 50% or more. The full list was thinned out, with strong results kept by preference.
Value Kind: Z score

{"Compound": "Nc1ccc(-c2ccc(NC3CCCC3)nn2)cn1", "Data Value": 1.48}
{"Compound": "O=c1c2ccccc2nc(Cc2ccccc2)n1Nc1ccccc1", "Data Value": 1.76}
{"Compound": "CCOC(=O)C1CCCN(C2CCN(C(=O)CCC3(Cc4ccc(C)cc4)CCC(=O)N3)CC2)C1 (stereo unspecified)", "Data Value": 0.68}
{"Compound": "Cc1ccnc(N2CCC(O)(Cn3ccnc3)CC2)n1", "Data Value": 1.12}
{"Compound": "CCn1nnc2cc(C(=O)N3CCN(C(c4ccccc4)c4ccccc4)CC3)ccc21", "Data Value": -3.63}
{"Compound": "Cc1ccc(C2=C[C@@H](c3ccc(Cl)cc3)n3nc(NC(=O)c4ccccc4)nc3N2)cc1", "Data Value": -8.34}
{"Compound": "COC1CCCC(CC(=O)NC2CC(=O)N(C)C2)C1 (stereo unspecified)", "Data Value": -0.4}
{"Compound": "CCc1ccccc1S(=O)(=O)NC[C@H](C(=O)O)C(C)C", "Data Value": -0.45}
{"Compound": "CC(C)(N)c1ccc(Cl)c(Cl)c1", "Data Value": 1.19}
{"Compound": "c1ccc(-c2nc(CN3CCCCCCC3)cs2)cc1", "Data Value": 1.49}
{"Compound": "Cc1ncsc1CCNC(=O)[C@H]1CCN(c2ccc(C(F)(F)F)cn2)C1", "Data Value": 0.7}
